tgt: Serine/threonine-protein kinase B-raf (Homo sapiens, UniProt P15056, V600E)
Sequence (P15056 2-766 V600E limits assumed): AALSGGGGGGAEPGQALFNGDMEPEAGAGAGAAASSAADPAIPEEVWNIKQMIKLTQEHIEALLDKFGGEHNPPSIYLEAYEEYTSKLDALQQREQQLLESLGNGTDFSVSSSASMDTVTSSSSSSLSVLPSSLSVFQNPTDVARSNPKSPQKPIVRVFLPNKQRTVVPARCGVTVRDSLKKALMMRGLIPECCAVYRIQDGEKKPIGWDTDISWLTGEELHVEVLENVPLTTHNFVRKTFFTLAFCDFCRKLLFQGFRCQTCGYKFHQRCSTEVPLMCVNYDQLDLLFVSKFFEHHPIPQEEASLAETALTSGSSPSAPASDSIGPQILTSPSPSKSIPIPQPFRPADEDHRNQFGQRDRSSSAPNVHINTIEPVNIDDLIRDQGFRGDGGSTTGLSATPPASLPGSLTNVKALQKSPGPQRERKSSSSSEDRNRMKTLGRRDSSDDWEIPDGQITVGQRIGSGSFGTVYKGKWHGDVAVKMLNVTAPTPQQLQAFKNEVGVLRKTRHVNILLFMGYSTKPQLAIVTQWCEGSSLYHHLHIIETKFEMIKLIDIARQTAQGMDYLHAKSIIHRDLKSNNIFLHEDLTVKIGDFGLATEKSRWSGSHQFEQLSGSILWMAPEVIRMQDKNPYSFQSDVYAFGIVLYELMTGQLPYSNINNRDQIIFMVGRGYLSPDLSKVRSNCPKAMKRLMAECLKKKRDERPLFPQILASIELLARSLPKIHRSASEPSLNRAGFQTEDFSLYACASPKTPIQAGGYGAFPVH
procedure summary: Inhibition of B-Raf V600E mutant -mediated MEK phosphorylation
measured quantity: IC50
Answer shape: numeric part, then the unit.

Ask | Form field: reported IC50 of `COc1cc(-c2nn(C(C)C)cc2-c2ccnc(NC[C@H](C)O)n2)cnc1N`
Reply | 6.5 nM

----------
Some compounds, each annotated with its measured Activity.
tgt: Cytochrome P450 3A4 (Homo sapiens)
Sequence (P08684 whole entry): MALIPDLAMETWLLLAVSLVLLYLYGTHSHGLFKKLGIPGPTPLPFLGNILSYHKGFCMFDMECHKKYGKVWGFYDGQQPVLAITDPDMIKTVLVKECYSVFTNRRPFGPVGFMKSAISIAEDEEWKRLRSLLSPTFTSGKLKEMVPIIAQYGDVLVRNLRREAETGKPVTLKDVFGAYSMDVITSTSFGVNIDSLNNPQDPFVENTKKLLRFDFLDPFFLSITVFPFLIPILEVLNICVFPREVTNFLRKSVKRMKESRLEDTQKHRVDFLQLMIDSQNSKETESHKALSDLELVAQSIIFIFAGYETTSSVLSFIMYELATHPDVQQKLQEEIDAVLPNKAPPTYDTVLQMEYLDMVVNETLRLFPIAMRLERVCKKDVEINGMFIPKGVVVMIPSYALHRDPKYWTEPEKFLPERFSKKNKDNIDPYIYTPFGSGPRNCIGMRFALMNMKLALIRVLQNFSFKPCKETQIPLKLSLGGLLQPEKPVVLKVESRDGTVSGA
procedure summary: Time dependent inhibition of human liver microsome CYP3A4 assessed as change in midazolam metabolism at 60 uM by two-step reaction
Format: ADME
Design: scale not given: the % may be the effect or the level left
applied conditions: microsomes
Report the figure in % without appending any unit label.

Example entries begin here.
smiles repr: CC(C)n1cc(-c2ccnc(NC[C@H](C)O)n2)c(-c2cnc3[nH]ccc3c2)n1
measured quantity: Activity
unit symbol: %
reported value: 11
--
smiles repr: Cc1c[nH]c2ncc(-c3nn(C(C)C)cc3-c3ccnc(NC[C@H](C)O)n3)cc12
measured quantity: Activity
unit symbol: %
reported value: 11
--
smiles repr: CC(C)n1cc(-c2ccnc(NC[C@H](C)O)n2)c(-c2cnc3[nH]cc(Cl)c3c2)n1
measured quantity: Activity
unit symbol: %
reported value: 11
--
smiles repr: COc1nc(-c2nn(C(C)C)cc2-c2ccnc(NC[C@H](C)O)n2)cnc1N
measured quantity: Activity
unit symbol: %
reported value: 30

Ask | Lab note: need Activity for `COc1cc(-c2nn(C(C)C)cc2-c2ccnc(NC[C@H](C)O)n2)cnc1N` on Cytochrome P450 3A4 (Homo sapiens), anyone have it?
Reply | 13

----------
procedure summary: Half life in rat
Type: ADME, organism-based
applied conditions: in vivo
measured quantity: half-life (h)
Report the figure in h without appending any unit label.

Ask | Form field: reported half-life of `COc1cc(-c2nn(C(C)C)cc2-c2ccnc(NC[C@H](C)O)n2)cnc1N`
Reply | 4.43

----------
Test system: Salmonella typhimurium
procedure summary: Mutagenic activity in Salmonella typhimurium assessed as fold increase in colony forming units by Bioluminescent Ames assay relative to control
Format: toxicity, organism-based
applied conditions: salmonella enterica subsp. enterica serovar typhimurium
Some compounds, each annotated with its measured fold change (FC).

Example entries begin here.
smiles repr: COc1nc(-c2nn(C(C)C)cc2-c2ccnc(NC[C@H](C)O)n2)cnc1N
fold change (FC): 4
//
smiles repr: CC(=O)c1cc(-c2nn(C(C)C)cc2-c2ccnc(NC[C@H](C)O)n2)cnc1N
fold change (FC): < 2

Ask | Form field: reported fold change (FC) of `CC(C)n1cc(-c2ccnc(NC[C@H](C)O)n2)c(-c2cnc3[nH]cc(Cl)c3c2)n1`
Reply | < 2

Ask | Try this compound next: `Cc1c[nH]c2ncc(-c3nn(C(C)C)cc3-c3ccnc(NC[C@H](C)O)n3)cc12`
Reply | < 2

Ask | Try this compound next: `COc1cncc(-c2nn(C(C)C)cc2-c2ccnc(NC[C@H](C)O)n2)c1`
Reply | < 2

Ask | Try this compound next: `COc1cc(-c2nn(C(C)C)cc2-c2ccnc(NC[C@H](C)O)n2)cnc1N`
Reply | 4

Ask | Try this compound next: `CC(C)n1cc(-c2ccnc(NC[C@H](C)O)n2)c(-c2cnc3[nH]ccc3c2)n1`
Reply | < 2

Ask | Try this compound next: `CC(C)n1cc(-c2ccnc(NC[C@H](C)O)n2)c(-c2cnc3[nH]ncc3c2)n1`
Reply | < 2
